# maps each entry to its Log ODT
test system: panelist; test: Odor threshold concentration (Log T / Log ODT) by gas chromatograph with sniff port; design: species or system human; details: ingredient of Perfume oil B (Table 3)

Which value of Log ODT has been reported for (2Z)-1,1-DIETHOXY-3,7-DIMETHYL-2,6-OCTADIENE (A) + (2E)-1,1-DIETHOXY-3,7-DIMETHYL-2,6-OCTADIENE (B) in the records? >−4

# repeat for .ALPHA.-DIHYDROTERPINEOL (A) + .BETA.-DIHYDROTERPINEOL (B) >−4

====

tested on: panelist; experiment: Odor threshold concentration (Log T / Log ODT) by gas chromatograph with sniff port; set-up: species or system human; details: ingredient of Perfume oil B (Table 3)
measured.attribute: Log ODT

Some substances with recorded Log ODT:
TRICYCLO[5.2.1.0~2,6~]DEC-3-EN-8-YL ACETATE (A) + TRICYCLO[5.2.1.0~2,6~]DEC-4-EN-8-YL ACETATE (B)    >−4
(+−)-4-METHYLENE-2-PHENYLTETRAHYDRO-2H-PYRAN (A) + (+−)-4-METHYL-6-PHENYL-3,6-DIHYDRO-2H-PYRAN (B) + (+−)-4-METHYL-2-PHENYL-3,6-DIHYDRO-2H-PYRAN (C)    <−4
3-(4-ETHYLPHENYL)-2,2-DIMETHYLPROPANAL (A) + 3-(2-ETHYLPHENYL)-2,2-DIMETHYLPROPANAL (B)    >−4

What measured Log ODT goes with 10-UNDECENAL (A) + (9E)-9-UNDECENAL (B) + (9Z)-9-UNDECENAL (C) ? <−4

Please answer likewise for (2RS,4SR)-4-METHYL-2-(2-METHYL-1-PROPEN-1-YL)TETRAHYDRO-2H-PYRAN (A) + (2RS,4RS)-4-METHYL-2-(2-METHYL-1-PROPEN-1-YL)TETRAHYDRO-2H-PYRAN (B) >−4
